- METHOD: Microsomal stability in mouse liver microsomes assessed as half life
- Type: ADME, Microsome
Entries and their half-life values follow.
Please state the figure in min; there is no need to write the unit.

Below are worked cases with known answers.
molecular_string=Cc1cc(C(=O)Nc2ccc(F)cn2)ccc1N(CCN1CCCC1=O)C(=O)Nc1ccc(Cl)cc1 reported_value=3.7
molecular_string=Cc1cc(C(=O)Nc2ccc(Cl)cc2)ccc1N(CC(=O)N1CCOCC1)C(=O)Nc1ccc(Cl)cc1 reported_value=28.3
molecular_string=Cc1cc(C(=O)Nc2ccc(Cl)cc2)ccc1N(CCN1CCOCC1=O)C(=O)Nc1ccc(Cl)cc1 reported_value=8.9
molecular_string=Cc1cc(C(=O)Nc2ccc(C(F)(F)F)nc2)ccc1N(CCN1CCOCC1)C(=O)Nc1ccc(Cl)cc1 reported_value=7.7
molecular_string=Cc1cc(C(=O)Nc2ccc3c(c2)OCO3)ccc1N(CCN1CCOCC1)C(=O)Nc1ccc(Cl)cc1 reported_value=4
molecular_string=Cc1cc(C(=O)Nc2ccc(F)cn2)ccc1N(CCN1CCCC1)C(=O)Nc1ccc(Cl)cc1 reported_value=26.2

Lookup: Find the measured half-life of Cc1cc(C(=O)Nc2ccc(Cl)cc2)ccc1N(CCN1CCCC1)C(=O)Nc1ccc(Cl)cc1 and report it.
Found: 35.8

Lookup: Find the measured half-life of Cc1cc(C(=O)Nc2ccc(Cl)cc2)ccc1N(CCN1CCCC1=O)C(=O)Nc1ccc(Cl)cc1 and report it.
Found: 8.8

* * *

- TESTED SYSTEM: Bifunctional epoxide hydrolase 2 (Homo sapiens) (UniProt P34913)
- Sequence (P34913 whole entry): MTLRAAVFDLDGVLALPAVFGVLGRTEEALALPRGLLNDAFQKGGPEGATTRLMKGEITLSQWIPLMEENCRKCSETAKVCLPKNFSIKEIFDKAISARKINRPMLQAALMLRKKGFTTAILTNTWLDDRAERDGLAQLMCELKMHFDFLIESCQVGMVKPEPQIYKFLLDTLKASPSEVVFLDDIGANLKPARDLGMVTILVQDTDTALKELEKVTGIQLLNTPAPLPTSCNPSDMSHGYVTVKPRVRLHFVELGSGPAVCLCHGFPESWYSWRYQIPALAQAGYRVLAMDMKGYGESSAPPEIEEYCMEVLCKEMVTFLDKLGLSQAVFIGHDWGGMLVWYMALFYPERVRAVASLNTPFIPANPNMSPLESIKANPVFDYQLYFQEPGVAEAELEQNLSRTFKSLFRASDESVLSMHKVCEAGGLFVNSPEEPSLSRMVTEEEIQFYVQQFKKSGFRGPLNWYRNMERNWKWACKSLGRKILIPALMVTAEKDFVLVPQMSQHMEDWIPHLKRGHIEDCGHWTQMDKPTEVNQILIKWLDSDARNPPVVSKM
- METHOD: Inhibition of sEH (unknown origin) at 100 nM relative to control
Entries and their inhibition values follow.
Please state the figure in %; there is no need to write the unit.

molecular_string=Cc1cc(C(=O)Nc2ccc(Cl)cc2)ccc1N(CCN1CCCC1)C(=O)Nc1ccc(Cl)cc1 tested_system="Bifunctional epoxide hydrolase 2 (Homo sapiens) (UniProt P34913)" quantity_kind=inhibition reported_value=98.5
molecular_string=Cc1cc(C(=O)Nc2ccc(C(F)(F)F)nc2)ccc1N(CCN1CCOCC1)C(=O)Nc1ccc(Cl)cc1 tested_system="Bifunctional epoxide hydrolase 2 (Homo sapiens) (UniProt P34913)" quantity_kind=inhibition reported_value=87.8
molecular_string=Cc1cc(C(=O)Nc2ccc3c(c2)OCO3)ccc1N(CCN1CCOCC1)C(=O)Nc1ccc(Cl)cc1 tested_system="Bifunctional epoxide hydrolase 2 (Homo sapiens) (UniProt P34913)" quantity_kind=inhibition reported_value=95.6
molecular_string=Cc1cc(C(=O)Nc2cnn(C)c2)ccc1N(CCN1CCOCC1)C(=O)Nc1ccc(Cl)cc1 tested_system="Bifunctional epoxide hydrolase 2 (Homo sapiens) (UniProt P34913)" quantity_kind=inhibition reported_value=87.7
molecular_string=Cc1cc(C(=O)Nc2ccc(Cl)cc2)ccc1N(CCN1CCOCC1=O)C(=O)Nc1ccc(Cl)cc1 tested_system="Bifunctional epoxide hydrolase 2 (Homo sapiens) (UniProt P34913)" quantity_kind=inhibition reported_value=93.9

Lookup: # return inhibition for Cc1cc(C(=O)Nc2ccc(Cl)cc2)ccc1N(CCN1CCSCC1)C(=O)Nc1ccc(Cl)cc1 , test system: Bifunctional epoxide hydrolase 2 (Homo sapiens) (UniProt P34913)
Found: 83.7

Lookup: # return inhibition for COCCN(C(=O)Nc1ccc(Cl)cc1)c1ccc(C(=O)Nc2ccc(Cl)cc2)cc1C , test system: Bifunctional epoxide hydrolase 2 (Homo sapiens) (UniProt P34913)
Found: 70.5

Lookup: # return inhibition for Cc1cc(C(=O)Nc2ccc(Cl)cc2)ccc1N(CCN1CCOC[C@H]1C)C(=O)Nc1ccc(Cl)cc1 , test system: Bifunctional epoxide hydrolase 2 (Homo sapiens) (UniProt P34913)
Found: 67.1

Lookup: # return inhibition for Cc1cc(C(=O)Nc2ccc(Cl)cc2)ccc1N(CCN1CC[S+]([O-])CC1)C(=O)Nc1ccc(Cl)cc1 , test system: Bifunctional epoxide hydrolase 2 (Homo sapiens) (UniProt P34913)
Found: 90.4

Lookup: # return inhibition for Cc1cc(C(=O)Nc2ccc(Cl)cc2)ccc1NC(=O)Nc1ccc(Cl)cc1 , test system: Bifunctional epoxide hydrolase 2 (Homo sapiens) (UniProt P34913)
Found: 80.3

Lookup: # return inhibition for Cc1cc(C(=O)Nc2ccc(Cl)cc2)ccc1N(CCO)C(=O)Nc1ccc(Cl)cc1 , test system: Bifunctional epoxide hydrolase 2 (Homo sapiens) (UniProt P34913)
Found: 74.3

Lookup: # return inhibition for Cc1cc(C(=O)Nc2cnccn2)ccc1N(CCN1CCOCC1)C(=O)Nc1ccc(Cl)cc1 , test system: Bifunctional epoxide hydrolase 2 (Homo sapiens) (UniProt P34913)
Found: 62.3

* * *

Entries and their half-life values follow.
- METHOD: Microsomal stability in dog liver microsomes assessed as half life
- Type: ADME, Canis lupus familiaris, Microsome
Returns: string containing the number followed by the unit.

Below are worked cases with known answers.
molecular_string=Cc1cc(C(=O)Nc2ccc(Cl)cc2)ccc1N(CC(=O)N1CCOCC1)C(=O)Nc1ccc(Cl)cc1 quantity_kind=half-life reported_value="37 min"
molecular_string=Cc1cc(C(=O)Nc2ccc(Cl)cc2)ccc1N(CCN1CCCC1)C(=O)Nc1ccc(Cl)cc1 quantity_kind=half-life reported_value="137 min"
molecular_string=Cc1cc(C(=O)Nc2ccc(F)cn2)ccc1N(CCN1CCCC1=O)C(=O)Nc1ccc(Cl)cc1 quantity_kind=half-life reported_value="3.1 min"

# evaluate next
Lookup: Find the measured half-life of Cc1cc(C(=O)Nc2ccc3c(c2)OCO3)ccc1N(CCN1CCCC1=O)C(=O)Nc1ccc(Cl)cc1 and report it.
Found: 3.3 min

* * *

Entries and their inhibition values follow.
- TESTED SYSTEM: Bifunctional epoxide hydrolase 2 (Homo sapiens)
- METHOD: Inhibition of sEH (unknown origin) at 100 nM relative to control
Please state the figure in %; there is no need to write the unit.

Below are worked cases with known answers.
molecular_string=Cc1cc(C(=O)Nc2ccc(Cl)cc2)ccc1N(CCN1CCS(=O)(=O)CC1)C(=O)Nc1ccc(Cl)cc1 quantity_kind=inhibition reported_value=95.2
molecular_string=Cc1cc(C(=O)Nc2ccc(F)cn2)ccc1N(CCN1CCCC1)C(=O)Nc1ccc(Cl)cc1 quantity_kind=inhibition reported_value=94.8

# evaluate next
Lookup: Find the measured inhibition of Cc1cc(C(=O)Nc2nccs2)ccc1N(CCN1CCOCC1)C(=O)Nc1ccc(Cl)cc1 and report it.
Found: 62.8

* * *

- METHOD: Microsomal stability in human liver microsomes assessed as half life
- Type: ADME, Microsome
QUANTITY KIND: log10 half-life (log10 of the value in min)
For clarity, the numbers are log10 values of half-life expressed in min.

Below are worked cases with known answers.
molecular_string=Cc1cc(C(=O)Nc2ccc(Cl)cc2)ccc1N(CCN1CCCC1=O)C(=O)Nc1ccc(Cl)cc1 reported_value=0.98
molecular_string=Cc1cc(C(=O)Nc2ccc(Cl)cc2)ccc1N(CCN1CCOCC1=O)C(=O)Nc1ccc(Cl)cc1 reported_value=0.96
molecular_string=Cc1cc(C(=O)Nc2ccc(F)cn2)ccc1N(CCN1CCCC1=O)C(=O)Nc1ccc(Cl)cc1 reported_value=0.60

Lookup: Find the measured log10 half-life of Cc1cc(C(=O)Nc2ccc(Cl)cc2)ccc1N(CC(=O)N1CCOCC1)C(=O)Nc1ccc(Cl)cc1 and report it.
Found: 1.50

Lookup: Find the measured log10 half-life of Cc1cc(C(=O)Nc2ccc(Cl)cc2)ccc1N(CCN1CCCC1)C(=O)Nc1ccc(Cl)cc1 and report it.
Found: 2.29

* * *

- METHOD: Microsomal stability in dog liver microsomes assessed as half life
- Assay type: ADME, Canis lupus familiaris, Microsome
Entries and their half-life values follow.

Below are worked cases with known answers.
molecular_string=Cc1cc(C(=O)Nc2ccc3c(c2)OCO3)ccc1N(CCN1CCOCC1)C(=O)Nc1ccc(Cl)cc1 reported_value="5.2 min"
molecular_string=Cc1cc(C(=O)Nc2ccc(Cl)cc2)ccc1N(CCN1CCCC1=O)C(=O)Nc1ccc(Cl)cc1 reported_value="11 min"
molecular_string=Cc1cc(C(=O)Nc2ccc(F)cn2)ccc1N(CCN1CCCC1)C(=O)Nc1ccc(Cl)cc1 reported_value="33.5 min"

Lookup: Find the measured half-life of Cc1cc(C(=O)Nc2ccc(C(F)(F)F)nc2)ccc1N(CCN1CCOCC1)C(=O)Nc1ccc(Cl)cc1 and report it.
Found: 5.4 min

Lookup: Find the measured half-life of Cc1cc(C(=O)Nc2ccc(Cl)cc2)ccc1N(CCN1CCOCC1=O)C(=O)Nc1ccc(Cl)cc1 and report it.
Found: 12.9 min

* * *

- TESTED SYSTEM: Bifunctional epoxide hydrolase 2 (Homo sapiens) (UniProt P34913)
- METHOD: Inhibition of sEH (unknown origin) at 100 nM relative to control
Entries and their inhibition values follow.
Please state the figure in %; there is no need to write the unit.

Below are worked cases with known answers.
molecular_string=Cc1cc(C(=O)Nc2ccc(Cl)cc2)ccc1N(CCN1CCCC1=O)C(=O)Nc1ccc(Cl)cc1 quantity_kind=inhibition unit_string=% reported_value=98.9
molecular_string=Cc1cc(C(=O)Nc2ccc(Cl)cc2)ccc1N(CCN1CCOC[C@@H]1C)C(=O)Nc1ccc(Cl)cc1 quantity_kind=inhibition unit_string=% reported_value=63.1

Lookup: # return inhibition for CC(=O)c1ccc(NC(=O)c2ccc(N(CCN3CCOCC3)C(=O)Nc3ccc(Cl)cc3)c(C)c2)cc1 , test system: Bifunctional epoxide hydrolase 2 (Homo sapiens) (UniProt P34913)
Found: 84.5

Lookup: # return inhibition for CCN(CC)CCN(C(=O)Nc1ccc(Cl)cc1)c1ccc(C(=O)Nc2ccc(Cl)cc2)cc1C , test system: Bifunctional epoxide hydrolase 2 (Homo sapiens) (UniProt P34913)
Found: 67.2

Lookup: # return inhibition for Cc1cc(C(=O)Nc2ccc(F)cn2)ccc1N(CCN1CCCC1=O)C(=O)Nc1ccc(Cl)cc1 , test system: Bifunctional epoxide hydrolase 2 (Homo sapiens) (UniProt P34913)
Found: 94.5

Lookup: # return inhibition for Cc1cc(C(=O)Nc2ccc(Cl)cc2)ccc1N(CCN1CCCCC1)C(=O)Nc1ccc(Cl)cc1 , test system: Bifunctional epoxide hydrolase 2 (Homo sapiens) (UniProt P34913)
Found: 92.5

Lookup: # return inhibition for Cc1cc(C(=O)Nc2ccc3c(c2)OCO3)ccc1N(CCN1CCCC1)C(=O)Nc1ccc(Cl)cc1 , test system: Bifunctional epoxide hydrolase 2 (Homo sapiens) (UniProt P34913)
Found: 83.3

Lookup: # return inhibition for Cc1cc(C(=O)Nc2ccc(C#N)cc2)ccc1N(CCN1CCOCC1)C(=O)Nc1ccc(Cl)cc1 , test system: Bifunctional epoxide hydrolase 2 (Homo sapiens) (UniProt P34913)
Found: 64

Lookup: # return inhibition for Cc1cc(C(=O)Nc2ccc(Cl)cc2)ccc1N(CCN(C)C)C(=O)Nc1ccc(Cl)cc1 , test system: Bifunctional epoxide hydrolase 2 (Homo sapiens) (UniProt P34913)
Found: 67.7
